Test: Water solubility analysis
Assay type: physicochemical
Conditions: thermodynamic from solid; distilled water, 37 °C, sonication 1 h
VALUE TYPE: log10(solubility at 1 h) (log10 of the value in µM)
Note: values are log10 of solubility at 1 h expressed in µM.

[[record]]
molecule = "CC(C)=CCOc1cc(O)c2c(=O)cc(-c3ccccc3)oc2c1"
value_type = "log10(solubility at 1 h)"
endpoint_value = 0.95

[[record]]
molecule = "COc1cc(OC)c2c(=O)cc(-c3ccccc3)oc2c1"
value_type = "log10(solubility at 1 h)"
endpoint_value = 1.04

[[record]]
molecule = "CC(=O)Oc1cc(OC(C)=O)c2c(=O)cc(-c3ccccc3)oc2c1"
value_type = "log10(solubility at 1 h)"
endpoint_value = 2.42

[[record]]
molecule = "O=c1cc(-c2ccccc2)oc2cc(O)cc(O)c12 [Chrysin, 5,7-dihydroxyflavone]"
value_type = "log10(solubility at 1 h)"
endpoint_value = 1.48

[[record]]
molecule = "CC(=O)Oc1cc(O)c2c(=O)cc(-c3ccccc3)oc2c1"
value_type = "log10(solubility at 1 h)"
endpoint_value = 1.93


Consider now this further molecule.
The molecule listed as "COc1cc(O)c2c(=O)cc(-c3ccccc3)oc2c1" has a reported log10(solubility at 1 h) of 1.00

// data source = paper PMC6099615
